# Dmax values compiled below
# study-target: CDK4 (Homo sapiens, UniProt P11802)
# Construct: endogenous in cells
# Sequence (P11802 whole entry): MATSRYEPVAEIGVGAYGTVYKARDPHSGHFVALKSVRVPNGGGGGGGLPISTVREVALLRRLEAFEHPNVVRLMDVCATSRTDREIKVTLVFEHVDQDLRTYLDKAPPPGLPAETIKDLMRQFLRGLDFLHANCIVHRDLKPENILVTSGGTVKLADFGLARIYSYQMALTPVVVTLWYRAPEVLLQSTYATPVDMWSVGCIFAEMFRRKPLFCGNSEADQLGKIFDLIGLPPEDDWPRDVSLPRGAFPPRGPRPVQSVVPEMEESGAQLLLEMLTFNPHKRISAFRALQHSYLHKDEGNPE
# method-notes: CDK4 degradation (DC50, Dmax)
# Assay type: cell-based

Some solved entries appear below for comparison.
compound="Cc1nc2c(F)cc(-c3nc(Nc4ccc(CC5CCN(C(=O)C6CCN(c7ccc(NC8CCC(=O)NC8=O)cc7)CC6)CC5)cn4)ncc3F)cc2n1C(C)C (stereo not drawn)" recorded_value="> 60%"
compound="Cc1nc2c(F)cc(-c3nc(Nc4ccc(CC5CCN(CC6CN(c7ccc8c(c7)C(=O)N(C7CCC(=O)NC7=O)C8=O)C6)CC5)cn4)ncc3F)cc2n1C(C)C (stereo not drawn)" recorded_value="> 80%"

Turning now to a further compound:
**Query** Please give the documented Dmax of Cc1nc2c(F)cc(-c3nc(Nc4ccc(CC5CCN(C(=O)C6CCN(c7ccc8c(c7)CN(C7CCC(=O)NC7=O)C8=O)CC6)CC5)cn4)ncc3F)cc2n1C(C)C (stereo not drawn)
**Result** > 60%
